Recorded measurements of Ki, one per entry
MEASURED_TARGET: human NK-3 receptor (Homo sapiens (Human), UniProt P29371)
Sequence (P29371 whole entry): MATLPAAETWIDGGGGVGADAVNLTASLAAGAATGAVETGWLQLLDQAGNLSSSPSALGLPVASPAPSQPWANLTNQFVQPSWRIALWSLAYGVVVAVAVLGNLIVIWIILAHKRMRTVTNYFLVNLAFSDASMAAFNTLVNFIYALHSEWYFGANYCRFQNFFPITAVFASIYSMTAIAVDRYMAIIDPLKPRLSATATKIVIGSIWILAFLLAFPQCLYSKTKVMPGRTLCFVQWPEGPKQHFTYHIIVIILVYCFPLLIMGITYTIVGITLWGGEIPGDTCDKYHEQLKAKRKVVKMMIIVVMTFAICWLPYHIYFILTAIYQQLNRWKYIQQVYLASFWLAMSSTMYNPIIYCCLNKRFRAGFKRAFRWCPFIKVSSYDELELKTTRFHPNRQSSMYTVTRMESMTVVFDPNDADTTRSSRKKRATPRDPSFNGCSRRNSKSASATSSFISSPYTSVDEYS
METHOD_DESCRIPTION: 3H-SB222200 binding competition assay with human NK-3 receptor
EXPERIMENTAL_PARAMETERS: Table 6; membranes of CHO cells expressing human NK3 receptor, 5 nM 3H-SB222200; read-out: Ki
Dear colleague, please return just the value in nM, with no unit written.

MOL_SMILES | Ki, nM
Cc1cc(-c2nnc3n2CCN(C(=O)c2ccc(-c4cccs4)cc2)[C@@H]3C)n(C)n1 | 68
Cc1nc(-c2nnc3n2CCN(C(=O)c2ccc(-c4cccs4)cc2)C3)cs1 | 83
Cc1csc(-c2nnc3n2CCN(C(=O)c2ccc(-c4ccccc4)cc2)[C@@H]3C)n1 | 12

Next, consider the following compound.
Under human NK-3 receptor (Homo sapiens (Human), UniProt P29371): Ki value of "Cc1nc(-c2nnc3n2CCN(C(=O)c2ccc(-c4cccs4)cc2)[C@@H]3C)sc1C" ?
21

---

Recorded measurements of Ki, one per entry
MEASURED_TARGET: human NK2 receptor (Homo sapiens (Human), UniProt P21452)
Sequence (P21452 whole entry): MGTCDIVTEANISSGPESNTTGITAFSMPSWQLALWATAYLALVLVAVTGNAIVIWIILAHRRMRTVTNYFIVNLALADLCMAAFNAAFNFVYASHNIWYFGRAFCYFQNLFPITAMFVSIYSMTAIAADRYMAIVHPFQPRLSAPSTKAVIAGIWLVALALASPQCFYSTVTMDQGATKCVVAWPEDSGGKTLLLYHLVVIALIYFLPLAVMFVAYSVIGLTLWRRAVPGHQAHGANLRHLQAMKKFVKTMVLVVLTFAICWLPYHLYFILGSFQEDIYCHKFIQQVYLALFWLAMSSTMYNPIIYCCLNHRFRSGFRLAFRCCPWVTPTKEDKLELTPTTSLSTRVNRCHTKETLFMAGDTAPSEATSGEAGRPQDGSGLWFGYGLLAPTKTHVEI
METHOD_DESCRIPTION: Human NK2 [125I]-Neurokinin A binding assay (selectivity)
EXPERIMENTAL_PARAMETERS: read-out: NK2 Ki; CHO membranes, 0.1 nM [125I]-Neurokinin A
Dear colleague, please return just the value in µM, with no unit written.

MOL_SMILES | MEASURED_TARGET | MEASUREMENT
Cc1cccc(-c2nnc3n2CCN(C(=O)c2ccc(-c4cccs4)cc2)[C@@H]3C)n1 | human NK2 receptor (Homo sapiens (Human), UniProt P21452) | 5.93

Next, consider the following compound.
Which Ki is listed for "Cc1nc(-c2nnc3n2CCN(C(=O)c2ccc(-c4cccs4)cc2)[C@@H]3C)cs1" ?
14

---

MEASURED_TARGET: human NK1 receptor (Homo sapiens (Human), UniProt P25103)
Sequence (P25103 whole entry): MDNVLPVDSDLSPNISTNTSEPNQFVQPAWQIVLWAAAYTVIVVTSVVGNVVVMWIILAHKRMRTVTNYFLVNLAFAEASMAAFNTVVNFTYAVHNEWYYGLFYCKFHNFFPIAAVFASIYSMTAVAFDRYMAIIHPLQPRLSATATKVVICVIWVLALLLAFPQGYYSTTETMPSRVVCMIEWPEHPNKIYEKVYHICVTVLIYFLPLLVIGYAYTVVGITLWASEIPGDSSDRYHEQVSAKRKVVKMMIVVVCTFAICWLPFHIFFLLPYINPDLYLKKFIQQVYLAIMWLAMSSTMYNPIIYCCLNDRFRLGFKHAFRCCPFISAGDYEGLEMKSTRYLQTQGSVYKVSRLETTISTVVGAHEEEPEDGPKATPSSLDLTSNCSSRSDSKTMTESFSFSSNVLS
METHOD_DESCRIPTION: Human NK1 [3H] substance P binding assay (selectivity)
EXPERIMENTAL_PARAMETERS: read-out: NK1 Ki, for the racemate; value measured for the racemate of the numbered compound
MEASURED_PROPERTY: Ki (µM)
Dear colleague, please return just the value in µM, with no unit written.

Which Ki is listed for C[C@@H]1c2nnc(-c3csc(N(C)C)n3)n2CCN1C(=O)c1ccc(-c2cccs2)cc1 [Compound 17] ?
6.06

---

MEASURED_TARGET: human NK-3 receptor (Homo sapiens (Human), UniProt P29371)
METHOD_DESCRIPTION: 3H-SB222200 binding competition assay with human NK-3 receptor
EXPERIMENTAL_PARAMETERS: Table 7; human NK-3 receptor; read-out: NK3 Ki
MEASURED_PROPERTY: Ki (nM)
Dear colleague, please return just the value in nM, with no unit written.

MOL_SMILES | Ki (nM)
C[C@@H]1c2nnc(-c3cccc(O)n3)n2CCN1C(=O)c1ccc(-c2cccs2)cc1 | 22

Which Ki is listed for "C[C@@H]1c2nnc(-c3csc(N(C)C)n3)n2CCN1C(=O)c1ccc(-c2cccs2)cc1" ?
7

Likewise for "Cc1nc(-c2nnc3n2CCN(C(=O)c2ccc(-c4cccs4)cc2)C3)cs1" ?
83

Likewise for "Cc1cccc(-c2nnc3n2CCN(C(=O)c2ccc(-c4cccs4)cc2)[C@@H]3C)n1" ?
10

Likewise for "Cc1nc(-c2nnc3n2CCN(C(=O)c2ccc(-c4cccs4)cc2)[C@@H]3C)co1" ?
44

---

Recorded measurements of Ki, one per entry
MEASURED_TARGET: human NK-3 receptor (Homo sapiens (Human), UniProt P29371)
METHOD_DESCRIPTION: 3H-SB222200 binding competition assay with human NK-3 receptor
EXPERIMENTAL_PARAMETERS: Table 6; membranes of CHO cells expressing human NK3 receptor, 5 nM 3H-SB222200; read-out: Ki
Dear colleague, please return just the value in nM, with no unit written.

MOL_SMILES | VALUE_UNIT | Ki
C[C@@H]1c2nnc(-c3coc(C4CC4)n3)n2CCN1C(=O)c1ccc(-c2cccs2)cc1 | nM | 11
C=Cc1nc(-c2nnc3n2CCN(C(=O)c2ccc(-c4cccs4)cc2)C3)cs1 | nM | 19
CC(C)c1nsc(-c2nnc3n2CCN(C(=O)c2ccc(-c4cccs4)cc2)[C@@H]3C)n1 | nM | 3

Next, consider the following compound.
Which Ki is listed for "O=C(c1ccc(-c2cccs2)cc1)N1CCn2c(nnc2-c2csc(C(F)(F)F)n2)C1" ?
56

---

MEASURED_TARGET: human NK1 receptor (Homo sapiens (Human), UniProt P25103)
METHOD_DESCRIPTION: Human NK1 [3H] substance P binding assay (selectivity)
EXPERIMENTAL_PARAMETERS: read-out: NK1 Ki; CHO membranes, 2 nM [3H] substance P
Recorded measurements of pKi, one per entry
Scale explanation: pKi corresponds to minus log10 of a concentration expressed in moles per litre.

MOLECULE | MEASURED_PROPERTY | MEASUREMENT
Cc1cccc(-c2nnc3n2CCN(C(=O)c2ccc(-c4cccs4)cc2)[C@@H]3C)n1 [Compound 30] | pKi | 4.76

Next, consider the following molecule.
Which pKi is listed for Cc1nc(-c2nnc3n2CCN(C(=O)c2ccc(-c4cccs4)cc2)[C@@H]3C)cs1 [Compound 1] ?
4.90

---

MEASURED_TARGET: human NK-3 receptor (Homo sapiens (Human))
METHOD_DESCRIPTION: Aequorin functional assay with human NK-3 receptor (antagonist testing vs NKA)
Format: cell-based
EXPERIMENTAL_PARAMETERS: inhibition of NKA (3 nM, EC80) response, CHO cells expressing human NK3 receptor and apoaequorin
pIC50: −log10 of the molar value.
Assign class by pIC50: not lower than 8 means t; lower than 8 means f.

Past entries and their recorded results:
MOL_SMILES | CLASS_ASSIGNMENT
Cc1nc(-c2nnc3n2CCN(C(=O)c2ccc(-c4cccs4)cc2)C3)cs1 | f
Cc1nc(-c2nnc3n2CCN(C(=O)c2ccc(-c4ccccc4)cc2)[C@@H]3C)co1 | f
C[C@@H]1c2nnc(-c3cccc(O)n3)n2CCN1C(=O)c1ccc(-c2cccs2)cc1 | f

Does "Cc1cc(-c2nnc3n2CCN(C(=O)c2ccc(-c4cccs4)cc2)[C@@H]3C)n(C)n1" have a reported pIC50 of at least 8?
f

Likewise for "Cc1nc(-c2nnc3n2CCN(C(=O)c2ccc(-c4ccccc4)cc2)[C@@H]3C)cs1" ?
f

Likewise for "Cc1nc(-c2nnc3n2CCN(C(=O)c2ccc(-c4cccs4)cc2)[C@@H]3C)sc1C" ?
f

---

MEASURED_TARGET: hERG channel (Homo sapiens (Human), UniProt Q12809)
Sequence (Q12809 whole entry): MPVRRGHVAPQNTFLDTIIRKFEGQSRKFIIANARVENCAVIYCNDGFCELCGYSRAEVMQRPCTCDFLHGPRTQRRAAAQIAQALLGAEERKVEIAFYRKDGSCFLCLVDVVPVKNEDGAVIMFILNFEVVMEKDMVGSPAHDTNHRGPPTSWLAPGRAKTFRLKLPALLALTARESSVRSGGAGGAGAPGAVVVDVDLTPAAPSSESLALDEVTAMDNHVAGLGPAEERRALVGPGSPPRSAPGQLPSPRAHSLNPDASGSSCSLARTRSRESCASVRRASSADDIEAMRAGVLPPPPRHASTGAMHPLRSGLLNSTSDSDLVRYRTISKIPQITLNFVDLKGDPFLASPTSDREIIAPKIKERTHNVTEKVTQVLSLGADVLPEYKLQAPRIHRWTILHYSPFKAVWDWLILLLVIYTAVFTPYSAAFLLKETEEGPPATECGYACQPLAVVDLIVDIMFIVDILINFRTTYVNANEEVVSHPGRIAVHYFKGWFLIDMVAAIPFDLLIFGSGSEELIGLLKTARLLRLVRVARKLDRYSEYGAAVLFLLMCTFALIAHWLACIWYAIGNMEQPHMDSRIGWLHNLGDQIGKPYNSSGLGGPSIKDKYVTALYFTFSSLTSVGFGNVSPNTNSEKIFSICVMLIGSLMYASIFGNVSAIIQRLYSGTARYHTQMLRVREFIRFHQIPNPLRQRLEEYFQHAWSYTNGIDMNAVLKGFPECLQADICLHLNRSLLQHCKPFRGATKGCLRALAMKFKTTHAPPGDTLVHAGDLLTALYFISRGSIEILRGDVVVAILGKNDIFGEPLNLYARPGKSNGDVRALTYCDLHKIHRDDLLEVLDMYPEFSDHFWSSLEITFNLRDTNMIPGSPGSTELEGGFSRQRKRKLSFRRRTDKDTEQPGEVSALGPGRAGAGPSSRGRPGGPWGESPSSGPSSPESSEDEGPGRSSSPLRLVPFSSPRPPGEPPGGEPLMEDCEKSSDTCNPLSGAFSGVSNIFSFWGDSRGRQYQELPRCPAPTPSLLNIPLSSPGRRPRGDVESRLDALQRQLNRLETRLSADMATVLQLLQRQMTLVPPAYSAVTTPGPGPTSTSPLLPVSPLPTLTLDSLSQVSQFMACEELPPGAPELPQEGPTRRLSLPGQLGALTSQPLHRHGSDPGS
METHOD_DESCRIPTION: hERG inhibition assay (manual patch-clamp, HEK 293 cells)
MEASURED_PROPERTY: IC50 (µM)
Dear colleague, please return just the value in µM, with no unit written.

Reference set, count: 2
MOL_SMILES | MEASURED_TARGET | VALUE_UNIT | MEASUREMENT
Cc1nc(-c2nnc3n2CCN(C(=O)c2ccc(-c4cccs4)cc2)[C@@H]3C)sc1C | hERG channel (Homo sapiens (Human), UniProt Q12809) | µM | 12
Cc1nc(-c2nnc3n2CCN(C(=O)c2ccc(-c4cccs4)cc2)C3)cs1 | hERG channel (Homo sapiens (Human), UniProt Q12809) | µM | 26

Next, consider the following compound.
Which IC50 is listed for "C[C@@H]1c2nnc(-c3cccc(O)n3)n2CCN1C(=O)c1ccc(-c2cccs2)cc1" ?
20

---

Recorded measurements of pKi, one per entry
MEASURED_TARGET: human NK-3 receptor (Homo sapiens (Human))
METHOD_DESCRIPTION: 3H-SB222200 binding competition assay with human NK-3 receptor
EXPERIMENTAL_PARAMETERS: Table 6; membranes of CHO cells expressing human NK3 receptor, 5 nM 3H-SB222200; read-out: Ki
Scale explanation: pKi corresponds to minus log10 of a concentration expressed in moles per litre.

Reference set, count: 2
COMPOUND | pKi
CC(C)c1nc(-c2nnc3n2CCN(C(=O)c2ccc(-c4cccs4)cc2)C3)co1 [Compound 14] | 7.38
Cc1nc(-c2nnc3n2CCN(C(=O)c2ccc(-c4ccccc4)cc2)[C@@H]3C)co1 [Compound 12] | 7.15

Which pKi is listed for Cc1nc(-c2nnc3n2CCN(C(=O)c2ccc(-c4ccccc4)cc2)[C@@H]3C)cs1 [Compound 2] ?
7.59

Likewise for CC(C)c1nc(-c2nnc3n2CCN(C(=O)c2ccc(-c4cccs4)cc2)C3)cs1 [Compound 18] ?
7.70

Likewise for Cc1cccc(-c2nnc3n2CCN(C(=O)c2ccc(-c4ccccc4)cc2)[C@@H]3C)n1 [Compound 29] ?
7.64

Likewise for C=Cc1nc(-c2nnc3n2CCN(C(=O)c2ccc(-c4ccccc4)cc2)[C@@H]3C)cs1 [Compound 8] ?
8.15

Likewise for CCc1nc(-c2nnc3n2CCN(C(=O)c2ccc(-c4cccs4)cc2)[C@@H]3C)cs1 [Compound 5] ?
8.30
